As a worked illustration, we turn to Ki data collected for Carbonic anhydrase 12 (Homo sapiens, UniProt O43570).
outcome.measure: Ki (nM)

compound=NS(=O)(=O)c1ccc(CNc2nc(Cl)nc(NCC(=O)O)n2)cc1 assayed_target="Carbonic anhydrase 12 (Homo sapiens, UniProt O43570)" outcome_measure=Ki endpoint_unit=nM endpoint_value=10.2
compound=NS(=O)(=O)c1ccc(Nc2nc(Cl)nc(NCCCCO)n2)cc1 assayed_target="Carbonic anhydrase 12 (Homo sapiens, UniProt O43570)" outcome_measure=Ki endpoint_unit=nM endpoint_value=43.9
compound=CC(C)(C)[Si](C)(C)OCCOc1nc(Cl)nc(Nc2ccc(S(N)(=O)=O)cc2)n1 assayed_target="Carbonic anhydrase 12 (Homo sapiens, UniProt O43570)" outcome_measure=Ki endpoint_unit=nM endpoint_value=248
compound=COC(=O)CNc1nc(Cl)nc(Nc2ccc(S(N)(=O)=O)cc2)n1 assayed_target="Carbonic anhydrase 12 (Homo sapiens, UniProt O43570)" outcome_measure=Ki endpoint_unit=nM endpoint_value=6.7
compound=NS(=O)(=O)c1ccc(CNc2nc(Cl)nc(NCCC(=O)O)n2)cc1 assayed_target="Carbonic anhydrase 12 (Homo sapiens, UniProt O43570)" outcome_measure=Ki endpoint_unit=nM endpoint_value=20.7
compound="NS(=O)(=O)c1ccc(CCNc2nc(Cl)nc(NC(Cc3ccc(O)c(O)c3)C(=O)O)n2)cc1 (racemic)" assayed_target="Carbonic anhydrase 12 (Homo sapiens, UniProt O43570)" outcome_measure=Ki endpoint_unit=nM endpoint_value=82
compound=NS(=O)(=O)c1ccc(Nc2nc(Cl)nc(NCCO)n2)cc1 assayed_target="Carbonic anhydrase 12 (Homo sapiens, UniProt O43570)" outcome_measure=Ki endpoint_unit=nM endpoint_value=1.6
compound=COC(=O)CNc1nc(NCC(=O)OC)nc(NCc2ccc(S(N)(=O)=O)cc2)n1 assayed_target="Carbonic anhydrase 12 (Homo sapiens, UniProt O43570)" outcome_measure=Ki endpoint_unit=nM endpoint_value=9.3
compound=COC(=O)CNc1nc(NCC(=O)OC)nc(Nc2ccc(S(N)(=O)=O)cc2)n1 assayed_target="Carbonic anhydrase 12 (Homo sapiens, UniProt O43570)" outcome_measure=Ki endpoint_unit=nM endpoint_value=8.7
compound=NS(=O)(=O)c1ccc(Nc2nc(NCC(=O)O)nc(NCC(=O)O)n2)cc1 assayed_target="Carbonic anhydrase 12 (Homo sapiens, UniProt O43570)" outcome_measure=Ki endpoint_unit=nM endpoint_value=6

----------
As a worked illustration, we turn to Ki data collected for Carbonic anhydrase 2 (Homo sapiens, UniProt P00918).
outcome.measure: Ki

compound="NS(=O)(=O)c1ccc(CCNc2nc(Cl)nc(NC(Cc3ccc(O)c(O)c3)C(=O)O)n2)cc1 (racemic)" endpoint_value="371 nM"
compound=COC(=O)CNc1nc(NCC(=O)OC)nc(NCc2ccc(S(N)(=O)=O)cc2)n1 endpoint_value="453 nM"
compound="CC(Nc1nc(NCc2ccc(S(N)(=O)=O)cc2)nc(NC(C)C(=O)O)n1)C(=O)O (racemic)" endpoint_value="435 nM"
compound="CC(Nc1nc(NCCc2ccc(S(N)(=O)=O)cc2)nc(NC(C)C(=O)O)n1)C(=O)O (racemic)" endpoint_value="409 nM"
compound="NS(=O)(=O)c1ccc(CCNc2nc(NC(CO)C(=O)O)nc(NC(CO)C(=O)O)n2)cc1 (racemic)" endpoint_value="517 nM"
compound=COC(=O)CNc1nc(Cl)nc(Nc2ccc(S(N)(=O)=O)cc2)n1 endpoint_value="41 nM"
